Reported IC50 values follow for various compounds
Molecular target: DGKα (Homo sapiens)
Sequence (P23743 whole entry): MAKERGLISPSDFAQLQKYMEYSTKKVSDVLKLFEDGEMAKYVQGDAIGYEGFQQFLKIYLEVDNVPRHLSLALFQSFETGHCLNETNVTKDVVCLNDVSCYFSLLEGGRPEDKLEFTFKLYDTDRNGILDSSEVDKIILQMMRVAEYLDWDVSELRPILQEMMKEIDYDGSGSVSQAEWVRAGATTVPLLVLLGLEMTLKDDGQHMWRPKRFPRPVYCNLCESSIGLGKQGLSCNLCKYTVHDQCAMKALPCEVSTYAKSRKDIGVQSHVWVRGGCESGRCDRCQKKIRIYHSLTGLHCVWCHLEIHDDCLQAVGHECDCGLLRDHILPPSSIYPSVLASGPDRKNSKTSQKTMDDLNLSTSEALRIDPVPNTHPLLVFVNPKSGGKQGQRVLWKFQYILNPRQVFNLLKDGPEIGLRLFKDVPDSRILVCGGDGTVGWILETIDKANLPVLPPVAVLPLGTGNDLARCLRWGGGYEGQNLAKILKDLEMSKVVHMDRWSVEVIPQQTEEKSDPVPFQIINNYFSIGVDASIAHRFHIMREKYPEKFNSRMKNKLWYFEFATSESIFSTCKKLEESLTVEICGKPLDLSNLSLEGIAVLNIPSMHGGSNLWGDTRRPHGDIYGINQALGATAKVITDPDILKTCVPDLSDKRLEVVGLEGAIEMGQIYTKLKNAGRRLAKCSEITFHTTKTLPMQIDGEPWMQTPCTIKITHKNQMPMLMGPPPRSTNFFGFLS

See these solved cases before continuing.
CC(C)CN(c1ccc(F)cc1)[C@H]1CC[C@H](N(C)c2cc(=O)n(C)c3ccc(C#N)nc23)CC1 [Example 41]    ≥ 1000 nM
COc1ccc(N(C2CC2)[C@H]2CC[C@H](N(C)c3c(C#N)c(=O)n(C)c4ccc(Cl)nc34)CC2)cc1 [Example 3E]    10 to 100 nM
Cc1[nH]c2ccccc2c1C(=O)N[C@H]1CC[C@H](N(CC2COC2)c2ccccc2)CC1 [Example 4C]    ≥ 1000 nM

Next, consider the following compound.
Q: Returns the measured IC50 for the input compound. Input: COc1cc(N(CC2CC2)[C@H]2CC[C@H](N(C)c3c(C#N)c(=O)n(C)c4ccc(Cl)nc34)CC2)ccc1F [Example 39]
A: 10 to 100 nM
